Experiment: xn = mol fraction of the nth substance listed
Details: 303.15 K; 101.3 kPa; Liquid; x2 = 0.2
Assay Metric: viscosity (mPa·s)
Number in mPa·s, nothing else.

| Compound | viscosity (mPa·s) |
| --- | --- |
| CC(C)CC(C)O (stereo not given) [4-methyl-2-pentanol] + CCCCN | 2.06 |
| CCCC(O)CC (stereo not given) [3-hexanol] + CCCCN | 2.26 |
| CCCC(C)(C)O [2-methyl-2-pentanol] + CCCCN | 2.25 |
| CCCC(C)CO (stereo not given) [2-methyl-1-pentanol] + CCCCN | 2.67 |

--- query ---
Data request: What viscosity value was documented for this compound, CCCCC(C)O (stereo not given) [2-hexanol] + CCCCN ?
Data returned: 2.19

The reported measurements were obtained from the NIST ThermoML archive (doi:10.1021/je0498053).
